target: Cholinesterase (Equus caballus, UniProt P81908); assay: Competitive inhibition of equine BuChE by Lineweaver-Burk plot analysis
Sequence (P81908 whole entry): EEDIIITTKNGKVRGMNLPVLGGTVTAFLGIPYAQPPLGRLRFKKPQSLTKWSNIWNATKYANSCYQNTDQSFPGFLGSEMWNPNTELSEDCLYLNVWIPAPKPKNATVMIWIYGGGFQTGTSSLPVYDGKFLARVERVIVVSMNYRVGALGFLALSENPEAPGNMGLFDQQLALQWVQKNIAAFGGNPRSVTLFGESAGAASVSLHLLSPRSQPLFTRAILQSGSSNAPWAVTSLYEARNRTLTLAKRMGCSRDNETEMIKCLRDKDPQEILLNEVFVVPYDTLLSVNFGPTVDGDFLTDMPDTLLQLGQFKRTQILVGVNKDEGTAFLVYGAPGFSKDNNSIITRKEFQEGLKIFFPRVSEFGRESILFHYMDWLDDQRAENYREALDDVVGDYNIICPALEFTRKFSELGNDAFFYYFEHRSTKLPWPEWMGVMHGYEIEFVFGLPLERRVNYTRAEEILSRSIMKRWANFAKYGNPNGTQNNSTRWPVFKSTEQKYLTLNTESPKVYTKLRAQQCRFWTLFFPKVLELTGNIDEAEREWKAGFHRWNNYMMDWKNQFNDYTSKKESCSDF
measurement.type: Ki (µM)

>>> df
                              smiles_string  readout_units  number
0  CCOc1ccc(/C=N/NC(=O)CN2CCC(Cc3ccccc3)CC2)cc1             µM    31.5

* * *

biological target: UniProt:P81908; experiment: Mixed type inhibition of equine BuChE by Lineweaver-Burk plot analysis
measurement.type: Ki

                              smiles_string   result
0  COc1ccc(/C=N/NC(=O)CN2CCC(Cc3ccccc3)CC2)cc1  30.5 µM

* * *

The following compounds each carry a recorded IC50 for Cholinesterase (Equus caballus).
measurement.type: IC50

In [3]: df
Out[3]:
                              smiles_string   result
0  COc1ccc(/C=N/NC(=O)CN2CCC(Cc3ccccc3)CC2)cc1OC  55.1 µM
1  CCOc1ccc(/C=N/NC(=O)CN2CCC(Cc3ccccc3)CC2)cc1  67.3 µM
2  CCOc1ccc(/C=N/NC(=O)CN2CCN(Cc3ccccc3)CC2)cc1  98.8 µM
3  COc1ccc(/C=N/NC(=O)CN2CCN(Cc3ccccc3)CC2)cc1OC  71.7 µM
4  COc1ccc(/C=N/NC(=O)CN2CCN(Cc3ccccc3)CC2)cc1  88.3 µM
5  COc1ccc(/C=N/NC(=O)CN2CCC(Cc3ccccc3)CC2)cc1  48.8 µM

* * *

biological target: Acetylcholinesterase (Homo sapiens, UniProt P22303); test: Inhibition of human recombinant AChE measured for 1 min by Ellman's method
Sequence (P22303 whole entry): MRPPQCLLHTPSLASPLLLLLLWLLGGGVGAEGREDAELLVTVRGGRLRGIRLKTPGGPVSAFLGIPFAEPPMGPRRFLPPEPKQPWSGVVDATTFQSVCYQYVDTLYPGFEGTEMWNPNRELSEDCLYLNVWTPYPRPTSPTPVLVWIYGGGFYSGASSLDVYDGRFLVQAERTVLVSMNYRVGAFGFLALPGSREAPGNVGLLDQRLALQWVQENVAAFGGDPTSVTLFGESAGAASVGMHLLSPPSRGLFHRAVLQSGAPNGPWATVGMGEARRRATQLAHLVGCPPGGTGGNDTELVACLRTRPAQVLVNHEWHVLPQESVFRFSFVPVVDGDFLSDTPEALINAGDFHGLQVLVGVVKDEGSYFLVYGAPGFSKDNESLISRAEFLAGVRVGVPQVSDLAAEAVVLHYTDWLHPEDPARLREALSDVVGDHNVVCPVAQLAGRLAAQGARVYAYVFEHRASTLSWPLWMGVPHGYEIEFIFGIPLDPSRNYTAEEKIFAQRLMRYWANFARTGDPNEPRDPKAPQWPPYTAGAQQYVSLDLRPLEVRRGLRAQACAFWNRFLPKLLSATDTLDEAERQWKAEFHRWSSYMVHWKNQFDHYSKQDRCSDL
pIC50: −log10 of the molar value.
measurement.type: pIC50

>>> df
                              smiles_string  number
0  CCOc1ccc(/C=N/NC(=O)CN2CCN(Cc3ccccc3)CC2)cc1    4.09
1  COc1ccc(/C=N/NC(=O)CN2CCN(Cc3ccccc3)CC2)cc1OC    4.09
2  COc1ccc(/C=N/NC(=O)CN2CCN(Cc3ccccc3)CC2)cc1    4.05
3  COc1ccc(/C=N/NC(=O)CN2CCC(Cc3ccccc3)CC2)cc1OC    4.20
